The entries below are paired with their reported CC50.
# protocol_text: Toxicity against human HeLa P4/R5 cells
# Type: cell-based

{"molecule": "COc1cccc(OC)c1-c1cccc(Nc2cc(=O)n(O)c(=O)n2C)c1", "comparison_operator": "=", "CC50 / µM": 8}
{"molecule": "COc1ccc(-c2ccccc2Oc2cc(=O)n(O)c(=O)n2C)cc1", "comparison_operator": "=", "CC50 / µM": 6}
{"molecule": "Cn1c(Nc2ccc(-c3cccc(C#N)c3)cc2)cc(=O)n(O)c1=O", "comparison_operator": "=", "CC50 / µM": 25}
{"molecule": "COc1ccc(-c2cccc(Oc3cc(=O)n(O)c(=O)n3C)c2)cc1", "comparison_operator": "=", "CC50 / µM": 2.5}
{"molecule": "COc1ccccc1-c1cccc(Oc2cc(=O)n(O)c(=O)n2C)c1", "comparison_operator": "=", "CC50 / µM": 6}
{"molecule": "COc1cc(OC)cc(-c2ccc(Nc3cc(=O)n(O)c(=O)n3C)cc2)c1", "comparison_operator": "=", "CC50 / µM": 15}
{"molecule": "Cn1c(Nc2ccc(-c3ccccc3)cc2)cc(=O)n(O)c1=O", "comparison_operator": "=", "CC50 / µM": 6}
{"molecule": "Cc1ccc(-c2ccc(Nc3cc(=O)n(O)c(=O)[nH]3)cc2)cc1", "comparison_operator": ">", "CC50 / µM": 25}
{"molecule": "Cn1c(Nc2cccc(-c3ccc(C#N)cc3)c2)cc(=O)n(O)c1=O", "comparison_operator": "=", "CC50 / µM": 10}
{"molecule": "Cn1c(Oc2ccccc2-c2ccc(C(F)(F)F)cc2)cc(=O)n(O)c1=O", "comparison_operator": "=", "CC50 / µM": 6}
{"molecule": "Cn1c(Nc2cccc(-c3cncnc3)c2)cc(=O)n(O)c1=O", "comparison_operator": ">", "CC50 / µM": 25}
{"molecule": "COc1cc(OC)cc(-c2cccc(Nc3cc(=O)n(O)c(=O)n3C)c2)c1", "comparison_operator": "=", "CC50 / µM": 10}
{"molecule": "COc1ccccc1-c1cccc(Nc2cc(=O)n(O)c(=O)n2C)c1", "comparison_operator": "=", "CC50 / µM": 6}
{"molecule": "COc1cccc(-c2cccc(Oc3cc(=O)n(O)c(=O)n3C)c2)c1", "comparison_operator": "=", "CC50 / µM": 5}
{"molecule": "COc1ccc(-c2cccc(Nc3cc(=O)n(O)c(=O)n3C)c2)c(OC)c1", "comparison_operator": "=", "CC50 / µM": 6}
{"molecule": "COc1ccc(-c2ccc(Oc3cc(=O)n(O)c(=O)n3C)cc2)cc1", "comparison_operator": "=", "CC50 / µM": 6}
{"molecule": "Cn1c(Oc2cccc(-c3ccccc3)c2)cc(=O)n(O)c1=O", "comparison_operator": "=", "CC50 / µM": 3}
{"molecule": "COc1ccc(-c2cccc(Nc3cc(=O)n(O)c(=O)n3C)c2)cc1OC", "comparison_operator": "=", "CC50 / µM": 10}
{"molecule": "O=c1nc(Nc2ccc(-c3cnc4ccccc4c3)cc2)c2cccnc2n1O", "comparison_operator": "=", "CC50 / µM": 2}
{"molecule": "COc1ccccc1-c1ccc(Oc2cc(=O)n(O)c(=O)n2C)cc1", "comparison_operator": "=", "CC50 / µM": 5}
{"molecule": "COc1ccccc1-c1ccccc1Oc1cc(=O)n(O)c(=O)n1C", "comparison_operator": "=", "CC50 / µM": 8}
{"molecule": "O=c1cc(Nc2cccc(-c3ccc(F)cc3)c2)[nH]c(=O)n1O", "comparison_operator": ">", "CC50 / µM": 25}
{"molecule": "COc1ccc(-c2ccc(Nc3cc(=O)n(O)c(=O)n3C)cc2)cc1", "comparison_operator": "=", "CC50 / µM": 5}
{"molecule": "COc1cccc(-c2cccc(Nc3cc(=O)n(O)c(=O)n3C)c2)c1", "comparison_operator": "=", "CC50 / µM": 10}
{"molecule": "Cn1c(Nc2ccc(-c3ccc(C(F)(F)F)cc3)cc2)cc(=O)n(O)c1=O", "comparison_operator": "=", "CC50 / µM": 10}
{"molecule": "Cn1c(Nc2cccc(-c3cccc(C#N)c3)c2)cc(=O)n(O)c1=O", "comparison_operator": ">", "CC50 / µM": 25}
{"molecule": "Cn1c(Nc2cccc(C3CCOC3)c2)cc(=O)n(O)c1=O (stereo not drawn)", "comparison_operator": ">", "CC50 / µM": 25}
{"molecule": "COc1cccc(-c2ccccc2Oc2cc(=O)n(O)c(=O)n2C)c1", "comparison_operator": "=", "CC50 / µM": 6}
{"molecule": "Cn1c(Nc2ccc(-c3ccc(C#N)cc3)cc2)cc(=O)n(O)c1=O", "comparison_operator": "=", "CC50 / µM": 12}
{"molecule": "COc1ccc(-c2cccc(Nc3cc(=O)n(O)c(=O)[nH]3)c2)cc1", "comparison_operator": ">", "CC50 / µM": 25}
{"molecule": "COc1cccc(-c2ccc(Oc3cc(=O)n(O)c(=O)n3C)cc2)c1", "comparison_operator": "=", "CC50 / µM": 6}
{"molecule": "COc1cccc(-c2ccc(Nc3cc(=O)n(O)c(=O)[nH]3)cc2)c1", "comparison_operator": ">", "CC50 / µM": 25}
{"molecule": "COc1ccc(-c2cccc(Nc3cc(=O)n(O)c(=O)n3C)c2)cc1", "comparison_operator": "=", "CC50 / µM": 3}
{"molecule": "Cn1c(Oc2ccc(-c3ccccc3)cc2)cc(=O)n(O)c1=O", "comparison_operator": "=", "CC50 / µM": 5}
{"molecule": "Cn1c(Oc2cccc(-c3ccc(C(F)(F)F)cc3)c2)cc(=O)n(O)c1=O", "comparison_operator": ">", "CC50 / µM": 25}
{"molecule": "O=c1cc(Nc2ccc(-c3ccccc3)cc2)[nH]c(=O)n1O", "comparison_operator": ">", "CC50 / µM": 25}
{"molecule": "Cc1ccc(-c2ccc(Nc3cc(=O)n(O)c(=O)n3C)cc2)cc1", "comparison_operator": "=", "CC50 / µM": 5}
{"molecule": "COc1cccc(-c2ccc(Nc3cc(=O)n(O)c(=O)n3C)cc2)c1", "comparison_operator": "=", "CC50 / µM": 6}

These entries and their values trace back to ChEMBL document CHEMBL4428027.
